assayed.target: gastrin receptor (Cavia porcellus)
Construct: stomach was extracted from each animal immediately, from which gastric glands were prepared; from tissue; host or cells: gastric (fundic) glands of male Hartley guinea pigs
assay.notes: Gastrin receptor antagonism: displacement of 125I-labeled gastrin from gastric glands
Format: binding, guinea pig (male Hartley)
measurement.conditions: guinea pig fundic gastric glands; 125I-gastrin 0.2 nM; 30 min, 25° C.
Could you please report measured IC50 for the items listed next?
One number for each entry, in nM.

Examples from the recorded data:
compound: CC(C)(C)OC(=O)CN(C(=O)CNC(=O)Nc1ccc(Cl)cc1)c1ccccc1C(=O)c1ccccc1 [Compound 7y]
IC50 / nM: 42
//
compound: Cc1cccc(NC(=O)N[C@@H]2N=C(c3ccccc3)c3ccccc3N(CC(=O)c3ccccc3C)C2=O)c1 [YM-022, reference compound]
IC50 / nM: 2
//
compound: Cc1ccc(NC(=O)NCC(=O)N(CC(=O)OC(C)(C)C)c2ccccc2C(=O)c2ccccc2)cc1 [Compound 7z]
IC50 / nM: 6

Kindly consider the entry below.
Recorded result, C=CCOC(=O)c1cccc(NC(=O)NCC(=O)N(CC(=O)NC(C)(C)C)c2ccccc2C(=O)c2ccccc2)c1 [Compound 16a] , IC50: 25

----------
assayed.target: gastrin receptor (Cavia porcellus, UniProt H0VZC5)
Construct: stomach was extracted from each animal immediately, from which gastric glands were prepared; from tissue; host or cells: gastric (fundic) glands of male Hartley guinea pigs
Sequence (H0VZC5 1-426): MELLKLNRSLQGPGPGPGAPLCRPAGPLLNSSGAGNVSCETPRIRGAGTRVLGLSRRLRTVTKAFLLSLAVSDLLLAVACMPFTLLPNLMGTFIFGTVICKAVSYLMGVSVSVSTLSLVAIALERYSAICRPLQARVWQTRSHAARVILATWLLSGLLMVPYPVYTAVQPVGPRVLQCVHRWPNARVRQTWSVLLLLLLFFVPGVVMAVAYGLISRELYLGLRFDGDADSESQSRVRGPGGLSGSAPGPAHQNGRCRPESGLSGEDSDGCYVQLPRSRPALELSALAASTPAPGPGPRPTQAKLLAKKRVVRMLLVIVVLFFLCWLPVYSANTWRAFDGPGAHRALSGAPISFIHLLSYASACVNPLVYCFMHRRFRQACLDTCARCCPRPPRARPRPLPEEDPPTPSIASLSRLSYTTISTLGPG
assay.notes: Gastrin receptor antagonism: displacement of 125I-labeled gastrin from gastric glands
Type: binding, guinea pig (male Hartley)
measurement.conditions: guinea pig fundic gastric glands; 125I-gastrin 0.2 nM; 30 min, 25° C.
Structures can show the parent of a compound that is named as a salt.
Could you please report measured IC50 for the items listed next?
Give bare numbers, in nM.

Examples from the recorded data:
compound: CC(C)(C)OC(=O)CN(C(=O)CNC(=O)Nc1cccc(C(=O)O)c1)c1ccccc1C(=O)c1ccccc1 [Compound 8hb, calcium salt]
assayed.target: gastrin receptor (Cavia porcellus, UniProt H0VZC5)
IC50 [nM]: 3
--
compound: COC(=O)c1cccc(NC(=O)NCC(=O)N(CC(=O)OC(C)(C)C)c2ccccc2C(=O)c2ccccc2)c1
assayed.target: gastrin receptor (Cavia porcellus, UniProt H0VZC5)
IC50 [nM]: 7
--
compound: CC(C)(C)NC(=O)CN(C(=O)CNC(=O)Nc1cccc(C(=O)O)c1)c1ccccc1C(=O)c1ccccc1 [Compound 16b]
assayed.target: gastrin receptor (Cavia porcellus, UniProt H0VZC5)
IC50 [nM]: 6
--
compound: CC(C)(C)OC(=O)CN(C(=O)CNC(=O)Nc1cccc(C(F)(F)F)c1)c1ccccc1C(=O)C1CCCCC1 [Compound 15b]
assayed.target: gastrin receptor (Cavia porcellus, UniProt H0VZC5)
IC50 [nM]: 5
--
compound: CC(C)(C)OC(=O)CN(C(=O)CNC(=O)Nc1cccc(-c2nnn(C(c3ccccc3)(c3ccccc3)c3ccccc3)n2)c1)c1ccccc1C(=O)c1ccccc1
assayed.target: gastrin receptor (Cavia porcellus, UniProt H0VZC5)
IC50 [nM]: 1

Your task in this section: give IC50 for each listed record.
1. COC(=O)Cc1cccc(NC(=O)NCC(=O)N(CC(=O)OC(C)(C)C)c2ccccc2C(=O)c2ccccc2)c1
2. CC(C)(C)OC(=O)CN(C(=O)CNC(=O)Nc1cccc(OCC(=O)O)c1)c1ccccc1C(=O)c1ccccc1
3. CC(C)(C)OC(=O)CN(C(=O)CNC(=O)Nc1cccc(CC(=O)O)c1)c1ccccc1C(=O)c1ccccc1
4. CC(C)(C)OC(=O)CN(C(=O)CNC(=O)Nc1cccc(C(=O)O)c1)c1ccccc1C(=O)C1CCCCC1 [Compound 15d]
5. CC(C)(C)OC(=O)CN(C(=O)CNC(=O)Nc1cccc(C(=O)O)c1)c1ccccc1C(=O)c1ccccc1 [Compound 8h]

1: 2; 2: 3; 3: 2; 4: 3; 5: 4

Recorded result, CC(C)(C)OC(=O)CN(C(=O)CNC(=O)Nc1cccc(C(=O)O)c1)c1ccccc1C(=O)c1ccccc1 [Compound 8ha, sodium salt] , IC50: 2

----------
Could you please report measured log10(IC50) for the items listed next?
assayed.target: CCK-A receptor (Mus musculus)
Construct: crude membrane specimen from mouse pancreas; from tissue; host or cells: pancreas of male ddY mice, crude membranes
Sequence (O08786 whole entry): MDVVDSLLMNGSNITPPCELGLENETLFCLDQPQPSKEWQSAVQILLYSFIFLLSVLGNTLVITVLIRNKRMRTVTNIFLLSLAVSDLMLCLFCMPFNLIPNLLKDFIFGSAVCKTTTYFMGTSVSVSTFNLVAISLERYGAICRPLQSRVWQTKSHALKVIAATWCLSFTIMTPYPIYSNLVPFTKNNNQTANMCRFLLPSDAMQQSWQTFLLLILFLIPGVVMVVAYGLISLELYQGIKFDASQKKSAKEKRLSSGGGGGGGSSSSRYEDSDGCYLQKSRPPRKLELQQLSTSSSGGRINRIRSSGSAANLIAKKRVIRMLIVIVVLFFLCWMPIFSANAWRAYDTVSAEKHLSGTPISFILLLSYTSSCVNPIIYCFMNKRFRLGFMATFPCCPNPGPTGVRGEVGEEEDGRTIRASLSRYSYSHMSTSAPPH
assay.notes: CCK-A receptor antagonism: displacement of [3H]CCK-8 from crude membrane of pancreas
Type: binding, mouse (male ddY)
measurement.conditions: [3H]CCK-8 1 nM, 90 min, 25° C.
Where a name gives a salt, the structure may show the parent alone.
Hello, just confirming the data are log10 of IC50 with units of nM.

Examples from the recorded data:
compound: CC(C)(C)OC(=O)CN(C(=O)CNC(=O)Nc1cccc(C(=O)O)c1)c1ccccc1C(=O)c1ccccc1 [Compound 8h]
log10(IC50): 3.70

compound: Cc1cccc(NC(=O)N[C@@H]2N=C(c3ccccc3)c3ccccc3N(CC(=O)c3ccccc3C)C2=O)c1 [YM-022, reference compound]
log10(IC50): 2.00

compound: CC(C)(C)OC(=O)CN(C(=O)CNC(=O)Nc1cccc(-c2nnn(C(c3ccccc3)(c3ccccc3)c3ccccc3)n2)c1)c1ccccc1C(=O)c1ccccc1
log10(IC50): 3.22

compound: CC(C)(C)OC(=O)CN(C(=O)CNC(=O)Nc1cccc(C(=O)O)c1)c1ccccc1C(=O)C1CCCCC1 [Compound 15d]
log10(IC50): 3.30

compound: COC(=O)Cc1cccc(NC(=O)NCC(=O)N(CC(=O)OC(C)(C)C)c2ccccc2C(=O)c2ccccc2)c1
log10(IC50): 3.13

compound: COC(=O)c1cccc(NC(=O)NCC(=O)N(CC(=O)OC(C)(C)C)c2ccccc2C(=O)c2ccccc2)c1
log10(IC50): 3.13

compound: CC(C)(C)OC(=O)CN(C(=O)CNC(=O)Nc1cccc(C(=O)O)c1)c1ccccc1C(=O)c1ccccc1 [Compound 8ha, sodium salt]
log10(IC50): 3.53

compound: CC(C)(C)OC(=O)CN(C(=O)CNC(=O)Nc1cccc(OCC(=O)O)c1)c1ccccc1C(=O)c1ccccc1
log10(IC50): 3.34

compound: CC(C)(C)OC(=O)CN(C(=O)CNC(=O)Nc1cccc(CC(=O)O)c1)c1ccccc1C(=O)c1ccccc1
log10(IC50): 3.23

Kindly consider the entry below.
Let me check: CC(C)(C)OC(=O)CN(C(=O)CNC(=O)Nc1cccc(C(F)(F)F)c1)c1ccccc1C(=O)C1CCCCC1 [Compound 15b] , system CCK-A receptor (Mus musculus), measured log10(IC50) is 3.06

----------
assayed.target: CCK-B receptor (Mus musculus, UniProt P56481)
Construct: crude membrane specimen from mouse cerebral cortex; from tissue; host or cells: cerebral cortex of male ddY mice, crude membranes
Sequence (P56481 whole entry): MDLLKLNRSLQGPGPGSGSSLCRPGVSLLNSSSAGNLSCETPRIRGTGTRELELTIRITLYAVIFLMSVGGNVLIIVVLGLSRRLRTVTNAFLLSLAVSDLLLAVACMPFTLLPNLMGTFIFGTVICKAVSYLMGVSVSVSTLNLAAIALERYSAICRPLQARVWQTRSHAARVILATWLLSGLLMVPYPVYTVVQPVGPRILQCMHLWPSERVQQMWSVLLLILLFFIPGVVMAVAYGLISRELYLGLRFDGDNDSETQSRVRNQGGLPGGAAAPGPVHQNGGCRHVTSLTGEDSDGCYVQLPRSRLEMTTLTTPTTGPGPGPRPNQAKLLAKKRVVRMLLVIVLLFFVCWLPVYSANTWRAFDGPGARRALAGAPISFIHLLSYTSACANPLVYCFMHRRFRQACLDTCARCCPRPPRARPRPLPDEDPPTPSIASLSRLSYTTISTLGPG
assay.notes: CCK-B receptor antagonism: displacement of [3H]CCK-8 from crude membrane of cerebral cortex
Format: binding, mouse (male ddY)
measurement.conditions: [3H]CCK-8 1 nM, 90 min, 25° C.
Could you please report measured IC50 for the items listed next?
One number for each entry, in nM.

compound: COC(=O)Cc1cccc(NC(=O)NCC(=O)N(CC(=O)OC(C)(C)C)c2ccccc2C(=O)c2ccccc2)c1
measure.unit: nM
IC50: 11
--
compound: CC(C)(C)OC(=O)CN(C(=O)CNC(=O)Nc1cccc(C(F)(F)F)c1)c1ccccc1C(=O)C1CCCCC1 [Compound 15b]
measure.unit: nM
IC50: 6
--
compound: COC(=O)c1cccc(NC(=O)NCC(=O)N(CC(=O)OC(C)(C)C)c2ccccc2C(=O)c2ccccc2)c1
measure.unit: nM
IC50: 56

Your task in this section: give IC50 for each listed record.
1. C=CCOC(=O)c1cccc(NC(=O)NCC(=O)N(CC(=O)NC(C)(C)C)c2ccccc2C(=O)c2ccccc2)c1 [Compound 16a]
2. CC(C)(C)OC(=O)CN(C(=O)CNC(=O)Nc1cccc(-c2nnn(C(c3ccccc3)(c3ccccc3)c3ccccc3)n2)c1)c1ccccc1C(=O)c1ccccc1

[215, 8]

----------
Could you please report measured log10(IC50) for the items listed next?
assayed.target: CCK-B receptor (Mus musculus, UniProt P56481)
Construct: crude membrane specimen from mouse cerebral cortex; from tissue; host or cells: cerebral cortex of male ddY mice, crude membranes
assay.notes: CCK-B receptor antagonism: displacement of [3H]CCK-8 from crude membrane of cerebral cortex
Assay type: binding, mouse (male ddY)
measurement.conditions: [3H]CCK-8 1 nM, 90 min, 25° C.
Structures can show the parent of a compound that is named as a salt.
Hello, just confirming the data are log10 of IC50 with units of nM.

Examples from the recorded data:
compound: CC(C)(C)NC(=O)CN(C(=O)CNC(=O)Nc1cccc(C(=O)O)c1)c1ccccc1C(=O)c1ccccc1 [Compound 16b]
log10(IC50): 2.32

compound: CC(C)(C)OC(=O)CN(C(=O)CNC(=O)Nc1cccc(C(=O)O)c1)c1ccccc1C(=O)c1ccccc1 [Compound 8h]
log10(IC50): 1.81

compound: CC(C)(C)OC(=O)CN(C(=O)CNC(=O)Nc1cccc(C(=O)O)c1)c1ccccc1C(=O)C1CCCCC1 [Compound 15d]
log10(IC50): 0.78

compound: CC(C)(C)OC(=O)CN(C(=O)CNC(=O)Nc1cccc(C(=O)O)c1)c1ccccc1C(=O)c1ccccc1 [Compound 8ha, sodium salt]
log10(IC50): 1.62

compound: Cc1cccc(NC(=O)N[C@@H]2N=C(c3ccccc3)c3ccccc3N(CC(=O)c3ccccc3C)C2=O)c1 [YM-022, reference compound]
log10(IC50): 0.30

compound: CC(C)(C)OC(=O)CN(C(=O)CNC(=O)Nc1cccc(C(=O)O)c1)c1ccccc1C(=O)c1ccccc1 [Compound 8hb, calcium salt]
log10(IC50): 1.73

compound: CC(C)(C)OC(=O)CN(C(=O)CNC(=O)Nc1ccc(Cl)cc1)c1ccccc1C(=O)c1ccccc1
log10(IC50): 2.28

compound: Cc1ccc(NC(=O)NCC(=O)N(CC(=O)OC(C)(C)C)c2ccccc2C(=O)c2ccccc2)cc1
log10(IC50): 1.82

compound: CC(C)(C)OC(=O)CN(C(=O)CNC(=O)Nc1cccc(CC(=O)O)c1)c1ccccc1C(=O)c1ccccc1
log10(IC50): 0.48

Recorded result, `CC(C)(C)OC(=O)CN(C(=O)CNC(=O)Nc1cccc(OCC(=O)O)c1)c1ccccc1C(=O)c1ccccc1` , log10(IC50): 0.90

These entries and their values trace back to patent US5739162A.
